Hello, the source for this data is ChEMBL document CHEMBL1132568, in case you need it.

# target: Alpha-1B adrenergic receptor (non-human animal clone)
# method-notes: The binding affinity towards Alpha-1B adrenergic receptor in the COS cell line.
parameter: pKi
The read-out pKi is expressed as -log10 of concentration in moles per litre.

Just so you know, measured pKi for COc1cc2nc(N3CCN(C(=O)CC(=O)c4ccccc4)CC3)nc(N)c2cc1OC came out at 8.27

Just so you know, measured pKi for COc1cc2nc(N3CCN(C(=O)C(C)Oc4c(OC)cccc4C(C)C)CC3)nc(N)c2cc1OC (configuration not stated) came out at 7.83

* * *

# target: Adrenergic receptor alpha-1 (Rattus norvegicus, UniProt P15823+P23944+P43140)
# method-notes: Inhibition of Alpha-1 adrenergic receptor in rat cortex membrane
# Format: cell membranes
parameter: IC50 (nM)
Answer in nM, number only, no unit symbol.

The reported Adrenergic receptor alpha-1 (Rattus norvegicus, UniProt P15823+P23944+P43140) IC50 of COc1cc2nc(N(C)CCC(c3ccccc3)c3ccccc3)nc(N)c2cc1OC is 85

The reported Adrenergic receptor alpha-1 (Rattus norvegicus, UniProt P15823+P23944+P43140) IC50 of COc1cc2nc(N3CCN(Cc4ccccc4)CC3)nc(N)c2cc1OC is 32

The reported Adrenergic receptor alpha-1 (Rattus norvegicus, UniProt P15823+P23944+P43140) IC50 of COc1cc2nc(N3CCN(OCc4ccccc4)CC3)nc(N)c2cc1OC is 111

The reported Adrenergic receptor alpha-1 (Rattus norvegicus, UniProt P15823+P23944+P43140) IC50 of COc1cc2nc(N(C)Cc3ccccc3)nc(N)c2cc1OC is 70

The reported Adrenergic receptor alpha-1 (Rattus norvegicus, UniProt P15823+P23944+P43140) IC50 of COc1cc2nc(N3CCc4c(ccc5ccccc45)C3)nc(N)c2cc1OC is 1.6

The reported Adrenergic receptor alpha-1 (Rattus norvegicus, UniProt P15823+P23944+P43140) IC50 of COc1cc2nc(N3CCN(C(C)=O)CC3)nc(NC(C)=O)c2cc1OC is 5080

The reported Adrenergic receptor alpha-1 (Rattus norvegicus, UniProt P15823+P23944+P43140) IC50 of COc1cc2nc(N3CCN(C(=O)COc4c(OC)cccc4OC)CC3)nc(N)c2cc1OC is 6

The reported Adrenergic receptor alpha-1 (Rattus norvegicus, UniProt P15823+P23944+P43140) IC50 of COc1cc2nc(N3CCN(C(=O)C(C)(C)C)CC3)nc(N)c2cc1OC is 340

The reported Adrenergic receptor alpha-1 (Rattus norvegicus, UniProt P15823+P23944+P43140) IC50 of COc1cc2nc(N3CCN(C(=O)C(C)(C)Oc4ccccc4OC)CC3)nc(N)c2cc1OC is 49

The reported Adrenergic receptor alpha-1 (Rattus norvegicus, UniProt P15823+P23944+P43140) IC50 of COc1cc2nc(N3CCN(C(=O)CCC(=O)c4ccccc4)CC3)nc(N)c2cc1OC is 15

The reported Adrenergic receptor alpha-1 (Rattus norvegicus, UniProt P15823+P23944+P43140) IC50 of COc1cc2nc(N3CCN(C(=O)C(C)Oc4c(OC)cccc4C(C)C)CC3)nc(N)c2cc1OC (stereo not given) is 123

The reported Adrenergic receptor alpha-1 (Rattus norvegicus, UniProt P15823+P23944+P43140) IC50 of COc1cc2nc(N3CCc4ccccc4C3)nc(N)c2cc1OC is 4.1

The reported Adrenergic receptor alpha-1 (Rattus norvegicus, UniProt P15823+P23944+P43140) IC50 of COc1cc2nc(N3CCN(C(C)=O)CC3)nc(N)c2cc1OC is 45

The reported Adrenergic receptor alpha-1 (Rattus norvegicus, UniProt P15823+P23944+P43140) IC50 of COc1cc2nc(N3CCN(C(c4ccccc4)c4ccccc4)CC3)nc(N)c2cc1OC is 40

The reported Adrenergic receptor alpha-1 (Rattus norvegicus, UniProt P15823+P23944+P43140) IC50 of COc1cc2nc(N3CCN(C(=O)C(C)(C)Oc4c(OC)cccc4C(C)C)CC3)nc(N)c2cc1OC is 1180

The reported Adrenergic receptor alpha-1 (Rattus norvegicus, UniProt P15823+P23944+P43140) IC50 of COc1cc2nc(N3CCN(C(=O)CC(c4ccccc4)c4ccccc4)CC3)nc(N)c2cc1OC is 1.4

The reported Adrenergic receptor alpha-1 (Rattus norvegicus, UniProt P15823+P23944+P43140) IC50 of COc1cc2c(cc1OC)CN(c1nc(N)c3cc(OC)c(OC)cc3n1)CC2 is 0.2

The reported Adrenergic receptor alpha-1 (Rattus norvegicus, UniProt P15823+P23944+P43140) IC50 of COc1cc2nc(N3CCC(c4ccccc4)(c4ccccc4)CC3)nc(N)c2cc1OC is 259

The reported Adrenergic receptor alpha-1 (Rattus norvegicus, UniProt P15823+P23944+P43140) IC50 of COc1cc2nc(N3CCN(C(=O)c4ccccc4)CC3)nc(N)c2cc1OC is 4.6

The reported Adrenergic receptor alpha-1 (Rattus norvegicus, UniProt P15823+P23944+P43140) IC50 of COc1cc2nc(N3CCN(C(=O)CC(=O)c4ccccc4)CC3)nc(N)c2cc1OC is 7.2

The reported Adrenergic receptor alpha-1 (Rattus norvegicus, UniProt P15823+P23944+P43140) IC50 of COc1cc2nc(N3CCN(C(=O)C(c4ccccc4)c4ccccc4)CC3)nc(N)c2cc1OC is 3.2

The reported Adrenergic receptor alpha-1 (Rattus norvegicus, UniProt P15823+P23944+P43140) IC50 of COc1cc2nc(N[C@H](C)Cc3ccc(OC)c(S(N)(=O)=O)c3)nc(N)c2cc1OC is 3140

The reported Adrenergic receptor alpha-1 (Rattus norvegicus, UniProt P15823+P23944+P43140) IC50 of COc1cc2nc(N3CCN(C(=O)COc4c(OC)cccc4C(C)C)CC3)nc(N)c2cc1OC is 4

The reported Adrenergic receptor alpha-1 (Rattus norvegicus, UniProt P15823+P23944+P43140) IC50 of COc1cc2nc(N3CCNCC3)nc(N)c2cc1OC is 340
